Consider the following molecules; for each one, report its Ki.
Target: μ opioid receptor (Rattus norvegicus, UniProt P33535)
Sequence (P33535 whole entry): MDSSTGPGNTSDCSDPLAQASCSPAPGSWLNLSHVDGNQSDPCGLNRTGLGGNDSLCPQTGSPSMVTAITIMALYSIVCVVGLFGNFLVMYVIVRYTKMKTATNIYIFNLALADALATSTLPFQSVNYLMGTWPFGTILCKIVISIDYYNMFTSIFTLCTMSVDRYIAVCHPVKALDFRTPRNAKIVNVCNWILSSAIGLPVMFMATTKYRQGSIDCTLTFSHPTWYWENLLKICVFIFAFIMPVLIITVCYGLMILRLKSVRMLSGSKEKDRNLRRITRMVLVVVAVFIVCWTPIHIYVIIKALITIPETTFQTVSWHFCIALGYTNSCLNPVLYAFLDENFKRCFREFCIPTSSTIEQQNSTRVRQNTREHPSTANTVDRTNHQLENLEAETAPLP
Where a SMILES comes first, the peptide text is derived from it. [ ]: non-standard residue; d: D form. The star is where a group is joined. Tic = O=C(O)[C@@H]1Cc2ccccc2CN1; NHPhenethyl = c1ccc(CCN*)cc1
Give your result in nM as a bare value.

Given the molecule N[C@@H](Cc1ccc(O)cc1)C(=O)N1Cc2ccccc2C[C@H]1C(=O)NCCc1ccccc1[N+](=O)[O-] , what is its reported Ki? 355

Same again, this time with N[C@@H](Cc1ccc(O)cc1)C(=O)N1Cc2ccccc2C[C@H]1C(=O)N[C@@H]1CCc2ccccc2C1 26.3

Same again, this time with N[C@@H](Cc1ccc(O)cc1)C(=O)N1Cc2ccccc2C[C@H]1C(=O)NCC(CO)c1ccccc1 (single isomer, unassigned) [Example 27] 70.3

Same again, this time with Cc1ccccc1CCNC(=O)[C@@H]1Cc2ccccc2CN1C(=O)[C@@H](N)Cc1ccc(O)cc1 38.7

Same again, this time with NC(=O)C(CNC(=O)[C@@H]1Cc2ccccc2CN1C(=O)[C@@H](N)Cc1ccc(O)cc1)c1ccccc1 (single isomer, unassigned) [Example 18] 191

Same again, this time with CCOC(=O)C(CNC(=O)[C@@H]1Cc2ccccc2CN1C(=O)[C@@H](N)Cc1ccc(O)cc1C)c1ccccc1 (single isomer, unassigned) [Example 31] 79.7

Same again, this time with N[C@@H](Cc1ccc(O)cc1)C(=O)N1Cc2ccccc2C[C@H]1C(=O)NCCc1ccccc1 [H-Tyr-Tic-NH--CH2 --CH2 --Ph, reference compound] (H-Tyr-[Tic]-NHPhenethyl) 69.1

Same again, this time with NC(=O)C(CNC(=O)[C@@H]1Cc2ccccc2CN1C(=O)[C@@H](N)Cc1ccc(O)cc1)c1ccccc1 (single isomer, unassigned) [Example 17] 73.7

Same again, this time with N[C@@H](Cc1ccc(O)cc1)C(=O)N1Cc2ccccc2C[C@H]1C(=O)NCCc1ccccc1Br 23.3

Same again, this time with CCOC(=O)C(CNC(=O)[C@@H]1Cc2ccccc2CN1C(=O)[C@@H](N)Cc1ccc(O)cc1C)c1ccccc1 (single isomer, unassigned) [Example 30] 164

* * *

System: mouse vas deferens (MVD)
Assay: Mouse vas deferens (MVD) bioassay: inhibition of electrically evoked contractions
Format: cell-based
Conditions: ratio of GPI IC50 to MVD IC50
Method: Bioassays based on inhibition of electrically evoked contractions of the mouse vas deferens (MVD) and of the guinea pig ileum (GPI) were performed. […] The GPI and MVD bioassays were carried out as reported in P. W. Schiller et al., Biochem. Biophys. […] A log-dose response curve was determined with [Leu^5 ]enkephalin as standard for each ileum and vas preparation, and IC50 values of the compounds being tested were normalized according to A. A. Waterfield et al., Eur. J. Pharmacol. 58, 11-18 (1979).
Consider the following compounds; for each one, report its GPI/MVD IC50 ratio.
Answer as a number with no unit attached.

Given the compound Cc1ccccc1CCNC(=O)[C@@H]1Cc2ccccc2CN1C(=O)[C@@H](N)Cc1ccc(O)cc1 , what is its reported GPI/MVD IC50 ratio? 75.1

Same again, this time with N[C@@H](Cc1ccc(O)cc1)C(=O)N1Cc2ccccc2C[C@H]1C(=O)NCC(CO)c1ccccc1 (single isomer, unassigned) [Example 27] 38.7

Same again, this time with NC(Cc1ccc(O)cc1)C(=O)N1Cc2ccccc2CC1C(=O)NC1CC1c1ccccc1 (single isomer, unassigned) 70.9
